- target.of.assay: T1, rat serum albumin (rat, UniProt P02770 25-608)
- T1 construct: Bought protein, immobilized on a CM5 chip by amine coupling; also called Rat SA
- measurement.notes: SPR (Biacore 8K), albumin immobilized on CM5 chip, 25 C, 1:1 kinetic fit
Kd listing for selected binders.
reported.metric: Kd (nM)

RLN Analog 11 (other, Single-chain fusion: VHH - (G4Q)5 L1 - RLN2 B chain (desB1) - L2 of thirteen residues - RLN2 A chain (desA1-4)) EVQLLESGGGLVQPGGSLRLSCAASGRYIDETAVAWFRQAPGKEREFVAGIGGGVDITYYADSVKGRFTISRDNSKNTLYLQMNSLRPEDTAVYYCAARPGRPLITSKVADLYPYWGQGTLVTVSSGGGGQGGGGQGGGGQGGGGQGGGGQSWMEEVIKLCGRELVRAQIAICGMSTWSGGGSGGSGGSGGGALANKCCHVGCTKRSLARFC = 1.3
RLN Analog 6 (other, Single-chain fusion: RLN2 B chain (desB1) - L2 - RLN2 A chain - PGPQ-repeat L1 - VHH (C-terminal)) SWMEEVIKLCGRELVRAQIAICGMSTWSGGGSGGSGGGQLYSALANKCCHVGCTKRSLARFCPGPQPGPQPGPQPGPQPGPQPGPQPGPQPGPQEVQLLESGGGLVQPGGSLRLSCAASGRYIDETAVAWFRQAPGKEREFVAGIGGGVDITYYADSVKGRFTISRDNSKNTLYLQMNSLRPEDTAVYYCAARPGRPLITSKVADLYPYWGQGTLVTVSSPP = 9.7
RLN Analog 8 (other, Single-chain fusion: VHH - (PGPQ)8 L1 - RLN2 B chain (desB1) - L2 - RLN2 A chain) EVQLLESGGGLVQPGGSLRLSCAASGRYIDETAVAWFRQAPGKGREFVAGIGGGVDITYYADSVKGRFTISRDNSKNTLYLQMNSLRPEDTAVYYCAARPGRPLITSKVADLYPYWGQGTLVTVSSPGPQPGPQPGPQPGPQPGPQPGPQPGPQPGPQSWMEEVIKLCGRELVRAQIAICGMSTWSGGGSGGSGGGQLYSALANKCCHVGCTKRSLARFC = 1.7
RLN Analog 5 (other, Single-chain fusion: RLN2 B chain (desB1) - L2 - RLN2 A chain - (G4Q)5 L1 - VHH (C-terminal)) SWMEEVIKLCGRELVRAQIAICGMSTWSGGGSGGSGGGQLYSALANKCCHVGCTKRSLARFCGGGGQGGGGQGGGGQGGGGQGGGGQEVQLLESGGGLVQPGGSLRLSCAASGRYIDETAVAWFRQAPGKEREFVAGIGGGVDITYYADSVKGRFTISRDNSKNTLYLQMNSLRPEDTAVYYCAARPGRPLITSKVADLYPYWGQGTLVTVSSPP = 10
RLN Analog 2 (other, Single-chain fusion: VHH - (PGPA)8 L1 - RLN2 A chain - L2 - RLN2 B chain (desB1)) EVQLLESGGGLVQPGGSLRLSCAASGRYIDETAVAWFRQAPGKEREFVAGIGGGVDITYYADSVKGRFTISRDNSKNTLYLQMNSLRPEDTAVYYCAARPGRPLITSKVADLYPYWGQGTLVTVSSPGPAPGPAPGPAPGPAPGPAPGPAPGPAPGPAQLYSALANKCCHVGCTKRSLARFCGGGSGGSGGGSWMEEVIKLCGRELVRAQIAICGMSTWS = 3
